assay_readout: melting point

Example entries begin here.
[[record]]
compound = "CC1C(=O)N(CC(=O)CCc2ccccc2)C1S(=O)Cc1ccccc1 (stereo not drawn)"
result = "87 to 94 °C"

[[record]]
compound = "CC[C@@H]1O[C@](C#CC2CC2)(C(F)(F)F)c2cc(F)ccc2NC1=O (relative stereo)"
result = "186 °C"

[[record]]
compound = "CCN1C(C(=O)Nc2coc3ccccc3c2=O)C(=O)c2ccccc2S1(=O)=O (stereo not drawn)"
result = "235 to 237 °C"

[[record]]
compound = "COC(=O)c1nc2nccc(S)n2n1"
result = "206 °C"

[[record]]
compound = "Cc1oc2c(OC(C)C(N)=NO)cccc2c1C (stereo not drawn)"
result = "147 to 148 °C"


Record `O=C(O)C1(c2ccccc2)Cc2ccccc2C1` . Reported melting point: 193 to 195 °C

Record `CCCc1c(OCCCCCC(=O)c2c(C)c(C)c(O)c(O)c2C)ccc(C(=O)O)c1O` . Reported melting point: 169 to 170 °C

Record `Cc1cccc(-c2cn(C)cc(-c3cccc(C)c3)c2=O)c1` . Reported melting point: 148 to 150 °C

* * *

Reported melting point is given for each of the following molecules.

Example entries begin here.
[[record]]
molecule = "CCOC(=O)c1ccc(C=C(C)C)c(OC)c1"
result = "42 °C"

[[record]]
molecule = "CC12C=CCC=C1CCC1C2C(O)CC2(C)C(CCO)=CCC12 (centres undefined)"
result = "213 to 215 °C"

[[record]]
molecule = "O=C(N[C@H]1CCc2c(F)cc(F)cc2C1)C(F)(F)F"
result = "160 to 161 °C"

[[record]]
molecule = "O=S(=O)(NCCc1ccncc1)c1ccc(Br)s1"
result = "133 to 134 °C"

[[record]]
molecule = "COc1cc([C@@H](O)[C@@H](C)N2CCC(O)(c3ccccc3)CC2)ccc1O (relative stereo)"
result = "188 °C"

[[record]]
molecule = "O=C(O)CN1C(=O)C(=CC2CC=CCC2)SC1=S (centres undefined)"
result = "191 to 193 °C"


Record `O=C(O)c1cc(-c2ccc(Br)cc2)c(=O)n(Cc2ccc(Cl)cc2Cl)c1` . Reported melting point: 137 to 139 °C

Record COc1ncccc1-c1cccc(OC2SCC(OC(C)=O)C(OC(C)=O)C2OC(C)=O)c1 (centres undefined) . Reported melting point: 179 °C

* * *

Reported melting point is given for each of the following molecules.

Example entries begin here.
[[record]]
structure = "FC(F)(F)c1cc(Cl)c2nc(CCl)cn2c1"
result = "75 to 77 °C"

[[record]]
structure = "CCCc1cn(-c2cc(=O)n(-c3ccccc3)nc2C#N)nn1"
result = "192 to 195 °C"

[[record]]
structure = "O=C(O)c1cnc2c3ccccc3ncn2c1=O"
result = "> 270 °C"


Record `Nc1ccc(OCc2nnco2)cc1` . Reported melting point: 56 to 57 °C

Record `CCN(CC)C(=O)CCc1nc(-c2ccc([N+](=O)[O-])cc2)nc2ccccc12` . Reported melting point: 168 °C

* * *

assay_readout: melting point

Example entries begin here.
[[record]]
molecule = "CN1CCN(c2ccccc2C=CC(=O)NCc2ccc(Cl)cc2)CC1"
assay_readout = "melting point"
result = "193 to 194 °C"

[[record]]
molecule = "O=C(O)C1(CO)CCc2cc(C3CCCCC3)c(Cl)cc21 (stereo not given)"
assay_readout = "melting point"
result = "195 to 197 °C"

[[record]]
molecule = "CC(C)c1nc(-c2ncn3c2COC(=O)c2ccccc2-3)no1"
assay_readout = "melting point"
result = "143 to 144 °C"

[[record]]
molecule = "Cc1nc2c3c(ccn2c1C)C(OCCO)C(O)C(c1ccccc1)N3 (stereo not given)"
assay_readout = "melting point"
result = "107 to 109 °C"


Record CC(Br)(CC(Cl)(Cl)Cl)c1cccc(Cl)n1 (stereo not given) . Reported melting point: 42 to 45 °C
